readout-type: pIC50
Give only the number. pIC50 is defined as minus log10 of concentration in molar units.

State its pIC50 on human 11β-HSD1 microsome fraction (Homo sapiens): CC1(C)OC(NC23CC4CC(CC2C4)C3)=NS(=O)(=O)[C@H]1c1ccc(C2CCN(CCC(F)(F)F)CC2)cc1 [Example 2]
Sequence (P28845 whole entry): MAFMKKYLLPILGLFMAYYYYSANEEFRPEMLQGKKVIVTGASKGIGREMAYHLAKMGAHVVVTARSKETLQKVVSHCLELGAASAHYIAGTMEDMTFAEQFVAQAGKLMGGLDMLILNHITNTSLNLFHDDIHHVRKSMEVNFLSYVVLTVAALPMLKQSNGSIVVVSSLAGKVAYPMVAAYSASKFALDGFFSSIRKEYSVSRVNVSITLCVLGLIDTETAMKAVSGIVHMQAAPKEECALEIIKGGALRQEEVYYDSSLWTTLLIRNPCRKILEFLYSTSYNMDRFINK
7.62
